The reported measurements were obtained from PubChem BioAssay (NCATS).

- TEST_DESCRIPTION: AP1 Signaling Pathway (AID 357);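 note: ME-180 reporter cells stimulated with EGF at its EC50 level; % is set by controls: 0 for no effect and ±100 for the full control effect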
- EXPERIMENTAL_CONDITIONS: ME-180 (cervical carcinoma) AP-1-bla reporter, EGF-induced, beta-lactamase ratio, 5 h; at 7.69 µM (top of the series) unless noted
Results filed as inconclusive are left out.
PROPERTY_NAME: activity change, negative = inhibition (%)
Write it as a number; the unit % goes unstated.

c1cc2c(cc1C(N1CCNCC1)N1CCNCC1)OCO2; 1.84
CS[C@@H](CC(=O)O)C(=O)O; 2.29
O=C(Nc1c[nH]c(=O)[nH]c1=O)Oc1ccccc1; 1.22
NC[C@H]1O[C@@H](n2cnc3c(=O)[nH]c(N)nc32)[C@@H](O)[C@@H]1O; -6.27
O=S(=O)(O)c1ccc2c(N=Nc3c(O)ccc4ccccc34)cccc2c1; -13.3

**Query** Report activity change, negative = inhibition for `Cc1nn(-c2ccc(S(=O)(=O)O)cc2)c(O)c1N=Nc1ccc(-c2ccc(N=Nc3ccc4c(S(=O)(=O)O)cc(S(=O)(=O)O)c(N)c4c3O)c(O)c2)cc1O.[Cu].[Cu]`
**Result** 8.16

**Query** Report activity change, negative = inhibition for `Cc1cn(CC[C@H](N)C(=O)O)c(=O)[nH]c1=O`
**Result** 0.888

**Query** Report activity change, negative = inhibition for `O=C(O)C/C(=C\c1ccccc1)C(=O)O`
**Result** 7.15

**Query** Report activity change, negative = inhibition for `O=C(O)Cc1c(O)ccc2ccccc12`
**Result** 1.11

**Query** Report activity change, negative = inhibition for `CN(Cc1cc(C(C)(C)C)cc(Br)c1O)Cc1cc(C(C)(C)C)cc(Br)c1O`
**Result** -2.5

**Query** Report activity change, negative = inhibition for `CN1CCN(CCCN)CC1`
**Result** 0.666
